# Tested on: Mycosphaerella graminicola (Septoria tritici—SEPTTR)
# assayRemarks: In vitro fungal growth inhibition, Mycosphaerella graminicola (SEPTTR)
# Type: cell-based
# cond: Zymoseptoria tritici; 25 ppm in the growth medium; read-out: SEPTTR in vitro Growth Inhibition
# key: entry, value: inhibition at 25 ppm

Past entries and their recorded results:
O=C(Nc1ccc(Oc2cccc(C(F)(F)F)c2)cc1)c1nc(Br)ccc1O: < 80%
O=C(Nc1ccc(Oc2ccccc2C(F)(F)F)cc1)c1nc(Br)ccc1O: < 80%
COc1ccnc(C(=O)N[C@@H]2O[C@H](COC(C)=O)[C@H](OC(C)=O)[C@H](OC(C)=O)[C@H]2OC(C)=O)c1OC(C)=O: < 80%

Query string: Please give measured inhibition at 25 ppm of the following entry: CC(C)C(=O)O[C@H]1[C@H](C)OC(=O)[C@@H](NC(=O)c2nnc(O)nc2O)COC(=O)[C@@H]1Cc1ccccc1
Result string: < 80%

* * *

# System: Rhizoctonia solani (RHIZSO)
# assayRemarks: microbe, parasite or virus in culture
# Format: cell-based
# cond: Rhizoctonia solani, read-out: RHIZSO in vitro Growth Inhibition
measurementName: inhibition at 25 ppm

Past entries and their recorded results:
COC(=O)C(COC(=O)C(COC(=O)C(C)C)Cc1ccccc1)NC(=O)c1nccc(OC)c1O (stereo not shown) [Compound 349]: < 80%
COc1ccnc(C(=O)Nc2ccc(/C(=N/O)c3cccc(C(F)(F)F)c3)cc2)c1O [Compound 407]: < 80%
COc1ccnc(C(=O)N[C@H]2COC(=O)[C@H](Cc3ccccc3)[C@@H](OC(=O)C(C)C)[C@H](C)OC2=O)c1OC(=O)O[C@@H]1C[C@H](C)CC[C@H]1C(C)C [Compound 690]: < 80%

Now look at this one.
Query string: Please give measured inhibition at 25 ppm of the following entry: COc1ccnc(C(=O)NC2C(=O)c3ccc(-c4ccco4)cc3OC2C)c1O (stereo not shown) [Compound 323]
Result string: > 80%

* * *

# System: Rhizoctonia solani (RHIZSO)
# assayRemarks: microbe, parasite or virus in culture
# Assay type: cell-based
# cond: Rhizoctonia solani, read-out: RHIZSO in vitro Growth Inhibition
measurementName: inhibition at 25 ppm

Past entries and their recorded results:
COc1ccnc(C(=O)N[C@H]2COC(=O)[C@H](Cc3ccccc3)[C@@H](OC(=O)C(C)C)[C@H](C)OC2=O)c1OC(=O)c1ccc(F)cc1: < 80%
COc1ccnc(C(=O)N[C@H]2COC(=O)[C@H](Cc3ccccc3)[C@@H](OC(=O)c3ccccc3)[C@H](C)OC2=O)c1O: < 80%
O=C(NCc1ccccc1Cl)c1ncccc1O: > 80%
COc1ccnc(C(=O)N[C@H]2COC(=O)[C@H](Cc3ccccc3)[C@@H](OC(=O)C(C)C)[C@H](C)OC2=O)c1OC(=O)C(Cl)c1ccccc1 (stereo partly shown): < 80%
COc1ccnc(C(=O)Nc2ccc(C(=O)c3cccc(C(F)(F)F)c3)cc2)c1O: < 80%
COc1ccnc(C(=O)Nc2cccc(Sc3ccc(C(F)(F)F)cc3)c2)c1OC(C)=O: < 80%
CC(NC(=O)c1ncccc1O)c1ccccc1 (stereo not shown): < 80%
COc1ccnc(C(=O)Nc2ccc(C(=O)Nc3cccc(C(F)(F)F)c3)cc2)c1O: > 80%
COc1ccnc(C(=O)NC2O[C@H](CO)[C@H]3OC(C)(C)O[C@@H]23)c1O (stereo partly shown): < 80%
O=C(NCc1ccc(Cl)cc1)c1ncccc1O: > 80%

Query string: Provide inhibition at 25 ppm, recorded with Rhizoctonia solani (RHIZSO), of COc1ccnc(C(=O)N[C@H]2COC(=O)[C@H](Cc3ccccc3)[C@@H](OC(=O)C(C)C)[C@H](C)OC2=O)c1OC(=O)c1cccc(C(F)(F)F)c1
Result string: < 80%

Query string: Provide inhibition at 25 ppm, recorded with Rhizoctonia solani (RHIZSO), of COc1ccnc(C(=O)NC2COC(=O)[C@H]3CCCC[C@@H]3C(=O)OC2)c1O
Result string: < 80%

Query string: Provide inhibition at 25 ppm, recorded with Rhizoctonia solani (RHIZSO), of O=C(N[C@H]1CC2CC1[C@@H]1CCC[C@H]21)c1ncccc1O (stereo partly shown)
Result string: > 80%

Query string: Provide inhibition at 25 ppm, recorded with Rhizoctonia solani (RHIZSO), of COc1ccnc(C(=O)NC2CC(C)(C)CC(C)(C3CC3)C2)c1O (stereo not shown)
Result string: > 80%

Query string: Provide inhibition at 25 ppm, recorded with Rhizoctonia solani (RHIZSO), of COc1ccnc(C(=O)N[C@@H]2[C@@H](O)[C@H](O)[C@@H](CO)O[C@@H]2O)c1O
Result string: < 80%

Query string: Provide inhibition at 25 ppm, recorded with Rhizoctonia solani (RHIZSO), of Cc1ccc(C(=O)NC2CC(C)(C)CC(C)(C)C2)c(O)n1
Result string: < 80%

* * *

# key: entry, value: pest or weed control at 100 ppm
# System: Septoria tritici—SEPTTR
# assayRemarks: Leaf Blotch of Wheat, in vivo whole plant, 24 Hour Protectant
# cond: Zymoseptoria tritici, 24 h, 100 ppm spray, wheat, 24 hour protectant; control of fungal infection vs untreated plants; read-out: SEPTTR in vivo 1 Day Protectant

COc1ccnc(C(=O)NC(COC(=O)CCc2ccccc2)C(=O)OC(C)COC(=O)C(C)C)c1O (centres unmarked): 25 to 74%

Query string: Provide pest or weed control at 100 ppm, recorded with Septoria tritici—SEPTTR, of COc1ccnc(C(=O)Nc2ccc(Oc3ccc(C)cc3)cc2)c1O
Result string: < 25%

Query string: Provide pest or weed control at 100 ppm, recorded with Septoria tritici—SEPTTR, of CCOC(=O)c1cc(Oc2ccc(C(F)(F)F)cc2)ccc1NC(=O)c1nccc(OC)c1O
Result string: 25 to 74%

Query string: Provide pest or weed control at 100 ppm, recorded with Septoria tritici—SEPTTR, of COc1ccnc(C(=O)NC2O[C@H](CO)[C@H]3OC(C)(C)O[C@@H]23)c1O (some centres unmarked)
Result string: 25 to 74%

Query string: Provide pest or weed control at 100 ppm, recorded with Septoria tritici—SEPTTR, of COc1ccnc(C(=O)N[C@H]2COC(=O)[C@H](Cc3ccccc3)[C@@H](OC(=O)C3CCCCC3)[C@H](C)OC2=O)c1O
Result string: 25 to 74%

Query string: Provide pest or weed control at 100 ppm, recorded with Septoria tritici—SEPTTR, of COc1ccnc(C(=O)Nc2cccc(Oc3ccc(C(F)(F)F)cc3)c2)c1O
Result string: 25 to 74%

Query string: Provide pest or weed control at 100 ppm, recorded with Septoria tritici—SEPTTR, of COc1ccnc(C(=O)NC2COC(=O)C[C@H](NC(=O)OCc3ccccc3)C(=O)OC2)c1O (some centres unmarked)
Result string: 25 to 74%

Query string: Provide pest or weed control at 100 ppm, recorded with Septoria tritici—SEPTTR, of COc1ccnc(C(=O)Nc2cccc(Sc3ccc(C(F)(F)F)cc3)c2)c1O
Result string: 25 to 74%

* * *

# Test system: Leptosphaeria nodorum—LEPTNO
# assayRemarks: Glume Blotch of Wheat, in vivo whole plant, 24 Hour Protectant
# cond: Leptosphaeria; 100 ppm spray, 24 hour protectant, wheat; control of fungal infection vs untreated plants; read-out: LEPTNO in vivo 1 Day Protectant
measurementName: pest or weed control at 100 ppm

Past entries and their recorded results:
COc1ccnc(C(=O)NCC#CCCl)c1O: 25 to 74%
CC(=O)OC1CCC(NC(=O)c2ncccc2O)CC1 (stereo not drawn): < 25%
COc1ccnc(C(=O)NC2CC(C)(C)C(OC)C(C)(C)C2)c1O (stereo not drawn): 25 to 74%
COc1ccnc(C(=O)NC2COC(C)C2)c1O (stereo not drawn): < 25%
COc1ccnc(C(=O)NC(C)c2ccc(C(F)(F)F)cc2)c1O (stereo not drawn): 25 to 74%

Now look at this one.
Query string: Please give measured pest or weed control at 100 ppm of the following entry: CC1(C)CC(NC(=O)c2ncccc2O)CC(C)(C)C1=O
Result string: < 25%

* * *

# key: entry, value: pest or weed control at 100 ppm
# System: Septoria tritici—SEPTTR
# assayRemarks: Leaf Blotch of Wheat, in vivo whole plant, 24 Hour Protectant
# cond: Zymoseptoria tritici, 24 h, 100 ppm spray, wheat, 24 hour protectant; control of fungal infection vs untreated plants; read-out: SEPTTR in vivo 1 Day Protectant

Past entries and their recorded results:
CCCO[C@@H]1[C@@H](OCCC)[C@H](OCCC)CO[C@H]1NC(=O)c1nccc(OC)c1O: < 25%
COc1ccnc(C(=O)NC(C(=O)OCC(C)C)C(C)OC(=O)C(C)Cc2ccccc2)c1O (stereo not drawn): 25 to 74%
COC(=O)C(Cc1ccc(OCc2ccccc2)cc1)NC(=O)c1nccc(OC)c1O (single isomer, unassigned): 25 to 74%

Query string: Please give measured pest or weed control at 100 ppm of the following entry: COc1ccnc(C(=O)Nc2ccc(OC3CC(C)(C)CC(C)(C)C3)cc2)c1O
Result string: < 25%

Query string: Please give measured pest or weed control at 100 ppm of the following entry: COc1ccnc(C(=O)Nc2cccc(Oc3ccc(Cl)cc3)c2)c1O
Result string: 25 to 74%

Query string: Please give measured pest or weed control at 100 ppm of the following entry: COc1ccnc(C(=O)N[C@H]2O[C@@H](C)[C@@H](OC(C)=O)[C@@H](OC(C)=O)[C@@H]2OC(C)=O)c1O
Result string: 25 to 74%
